Biological target: recombinant human mPGES-1 (Homo sapiens, UniProt O14684)
Construct: made in house; host or cells: Rosetta E. coli (microsomal/membrane fraction)
Sequence (O14684 1-152): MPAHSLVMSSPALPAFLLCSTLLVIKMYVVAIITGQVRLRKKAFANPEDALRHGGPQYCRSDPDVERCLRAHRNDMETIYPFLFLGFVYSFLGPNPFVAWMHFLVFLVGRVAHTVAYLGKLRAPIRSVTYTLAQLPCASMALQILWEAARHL
Assay: mPGES-1 inhibition, HTRF detection of PGE2
Type: biochemical
Listing of recorded inhibition at 10 µM by entry.
Quick reminder: number only, in %, skip the unit.

Input: Record lookup: for recombinant human mPGES-1 (Homo sapiens, UniProt O14684), what inhibition at 10 µM belongs to Cn1c(Nc2c(Cl)cncc2Cl)nc2cc(C(=O)NCC(F)(F)C(F)(F)C(F)(F)C(F)(F)F)c(OC3CCOC3)nc21 (stereo not shown) ?
Output: 98

Input: Now consider Cn1c(Nc2c(Cl)cc(F)cc2Cl)nc2cc(C(=O)NCC(F)(F)C(F)(F)C(F)(F)C(F)(F)F)c(OCC(F)(F)F)nc21 .
Output: 100

---
Input: Field: inhibition at 10 µM (recombinant human mPGES-1 (Homo sapiens, UniProt O14684)). Entry: Cc1ccnc(C)c1Nc1nc2cc(C(=O)N[C@H]3CC[C@H](C(F)(F)F)CC3)c(OCC(F)F)nc2[nH]1
Output: 100

Input: Can you check Cn1c(Nc2c(Cl)cccc2Cl)nc2cc(C(=O)N[C@H]3CC[C@H](C)CC3)cnc21 next?
Output: 98

Input: Follow-up entry: Cn1c(Nc2c(Cl)cncc2Cl)nc2cc(C(=O)Nc3cc(C(F)(F)F)ccn3)c(OCC(F)(F)F)nc21
Output: 95

Input: CCCCCC[C@@H](C)NC(=O)c1cnc2c(c1)nc(Nc1c(Cl)cccc1Cl)n2C ?
Output: 100

Input: What do you have for O=C(N[C@H]1CC[C@H](C(F)(F)F)CC1)c1cc2nc(Nc3c(F)cccc3Cl)[nH]c2nc1OCC(F)F ?
Output: 100
